Origin of the recorded values: PubChem BioAssay AID2060899

System: 565726-208-R1-J5-PDC complex spheroids, growth inhibition
Experiment: Anticancer human tumor 565726-208-R1-J5-PDC patient-derived pancreatic adenocarcinoma cell line growth inhibition [RAS]
Conditions: second compound 0.00949 µM; first compound 3.16 µM; hits give low values
Simple rule here: viability, T/C less than 50% is MET, otherwise NOT MET.

Here's what some known entries look like.
Compound	Class
NC1c2ccccc2OC12CCN(c1cnc3c(N4CCCc5ncccc54)n[nH]c3n1)CC2 (configuration not stated) + CCn1c(-c2cccnc2C(C)OC)c2c3cc(ccc31)N1CCOC(CC(NC(=O)C(C(C)C)N(C)C(=O)C3(F)CCN(C(=O)C#CC(C)(C)N(C)C)CC3)C(=O)N3CCCC(N3)C(=O)OCC(C)(C)C2)C1	NOT MET
CC(=O)OC12COC1CC(O)C1(C)C(=O)C(O)C3=C(C)C(OC(=O)C(O)C(NC(=O)OC(C)(C)C)c4ccccc4)CC(O)(C(OC(=O)c4ccccc4)C21)C3(C)C (configuration not stated) + CCn1c(-c2cc(N3CCN(C)CC3)cnc2C(C)OC)c2c3cc(ccc31)-c1csc(n1)CC(NC(=O)C1CC1C)C(=O)N1CCCC(N1)C(=O)OCC(C)(C)C2	MET

Task item: Does the reported viability, T/C of C[C@@H](NC(=O)c1ncnc(N)c1Cl)c1ncc(C(=O)Nc2cc(C(F)(F)F)c(Cl)cn2)s1 + CCn1c(-c2cccnc2C(C)OC)c2c3cc(ccc31)N1CCOC(CC(NC(=O)C(C(C)C)N(C)C(=O)C3(F)CCN(C(=O)C#CC(C)(C)N(C)C)CC3)C(=O)N3CCCC(N3)C(=O)OCC(C)(C)C2)C1 stay below 50%?
Reply: NOT MET

Task item: What about this compound? CC(C)NCC(C(=O)N1CCN(c2ncnc3c2C(C)CC3O)CC1)c1ccc(Cl)cc1 (configuration not stated) + CCn1c(-c2cc(N3CCN(C)CC3)cnc2C(C)OC)c2c3cc(ccc31)-c1csc(n1)CC(NC(=O)C1CC1C)C(=O)N1CCCC(N1)C(=O)OCC(C)(C)C2
Reply: MET

Task item: What about this compound? CC(C)NCC(C(=O)N1CCN(c2ncnc3c2C(C)CC3O)CC1)c1ccc(Cl)cc1 (configuration not stated) + CCn1c(-c2cccnc2C(C)OC)c2c3cc(ccc31)N1CCOC(CC(NC(=O)C(C(C)C)N(C)C(=O)C3(F)CCN(C(=O)C#CC(C)(C)N(C)C)CC3)C(=O)N3CCCC(N3)C(=O)OCC(C)(C)C2)C1
Reply: NOT MET

Task item: What about this compound? C[C@@H](NC(=O)c1ncnc(N)c1Cl)c1ncc(C(=O)Nc2cc(C(F)(F)F)c(Cl)cn2)s1 + CCn1c(-c2cc(N3CCN(C)CC3)cnc2C(C)OC)c2c3cc(ccc31)-c1csc(n1)CC(NC(=O)C1CC1C)C(=O)N1CCCC(N1)C(=O)OCC(C)(C)C2
Reply: NOT MET

---

Tested on: 565726-208-R1-J5-PDC complex spheroids, growth inhibition
Experiment: Anticancer human tumor 565726-208-R1-J5-PDC cell line growth inhibition [RAS];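 further: spheroids exposed to compounds for seven days before readout; 100% = DMSO vehicle control viability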
Settings: second compound 0.0949 µM; first compound 1 µM; hits give low values
Result Type: viability, T/C

For orientation, consider the following solved cases.
Compound	Study Target	Recorded Measurement
O=C(c1ccc(F)c(F)c1Nc1ccc(I)cc1F)N1CC(O)([C@@H]2CCCCN2)C1 + CCn1c(-c2cccnc2C(C)OC)c2c3cc(ccc31)N1CCOC(CC(NC(=O)C(C(C)C)N(C)C(=O)C3(F)CCN(C(=O)C#CC(C)(C)N(C)C)CC3)C(=O)N3CCCC(N3)C(=O)OCC(C)(C)C2)C1	565726-208-R1-J5-PDC complex spheroids, growth inhibition	19.8%
CC(C)NCC(C(=O)N1CCN(c2ncnc3c2C(C)CC3O)CC1)c1ccc(Cl)cc1 (centres undefined) + CCn1c(-c2cc(N3CCN(C)CC3)cnc2C(C)OC)c2c3cc(ccc31)-c1csc(n1)CC(NC(=O)C1CC1C)C(=O)N1CCCC(N1)C(=O)OCC(C)(C)C2	565726-208-R1-J5-PDC complex spheroids, growth inhibition	21%
CCN1CCN(Cc2ccc(Nc3ncc(F)c(-c4cc(F)c5nc(C)n(C(C)C)c5c4)n3)nc2)CC1 + CCn1c(-c2cccnc2C(C)OC)c2c3cc(ccc31)N1CCOC(CC(NC(=O)C(C(C)C)N(C)C(=O)C3(F)CCN(C(=O)C#CC(C)(C)N(C)C)CC3)C(=O)N3CCCC(N3)C(=O)OCC(C)(C)C2)C1	565726-208-R1-J5-PDC complex spheroids, growth inhibition	59.5%

Note: attention shifts to another entry.
Task item: # viability, T/C lookup, item Cc1nc(N2CCC3(CC2)COC(C)C3N)c(CO)nc1Sc1ccnc(N)c1Cl (centres undefined) + CCn1c(-c2cc(N3CCN(C)CC3)cnc2C(C)OC)c2c3cc(ccc31)-c1csc(n1)CC(NC(=O)C1CC1C)C(=O)N1CCCC(N1)C(=O)OCC(C)(C)C2
Reply: 15.9%
